# Lookup of reported OD450 keyed by entry
- EXPERIMENTAL SYSTEM: T1, human CD22-ECD-His protein (human, UniProt P20273 20-687)
- T1 construct: Made in house in HEK293E; also called hCD22-ECD-His; recombinant human CD22-ECD His protein; not shown: His tag
- T1 sequence: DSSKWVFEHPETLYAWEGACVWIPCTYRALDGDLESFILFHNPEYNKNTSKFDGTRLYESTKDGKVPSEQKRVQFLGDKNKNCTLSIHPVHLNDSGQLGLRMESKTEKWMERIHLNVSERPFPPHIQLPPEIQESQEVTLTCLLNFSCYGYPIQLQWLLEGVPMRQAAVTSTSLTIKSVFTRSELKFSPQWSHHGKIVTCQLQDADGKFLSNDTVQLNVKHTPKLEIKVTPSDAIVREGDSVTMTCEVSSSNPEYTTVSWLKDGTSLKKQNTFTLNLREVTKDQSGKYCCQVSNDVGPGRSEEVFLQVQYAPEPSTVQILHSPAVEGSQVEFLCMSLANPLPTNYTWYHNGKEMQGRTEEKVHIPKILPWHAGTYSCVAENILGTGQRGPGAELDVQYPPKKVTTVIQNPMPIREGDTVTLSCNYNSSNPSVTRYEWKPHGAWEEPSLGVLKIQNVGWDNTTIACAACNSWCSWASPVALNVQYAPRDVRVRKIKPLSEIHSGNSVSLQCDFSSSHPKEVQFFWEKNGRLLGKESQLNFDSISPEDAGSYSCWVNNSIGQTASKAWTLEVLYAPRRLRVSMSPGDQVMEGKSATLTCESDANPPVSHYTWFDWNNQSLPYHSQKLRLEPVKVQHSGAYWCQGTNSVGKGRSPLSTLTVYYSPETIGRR
- EXPERIMENT: ELISA, Ab 0.0001 nM
Return type: number; implicit unit OD450.

Here are 2 binders together with their reported answers.
BINDER	OD450 / OD450
F1.172.13 (antibody, human IgG1, kappa, V domains shown, Human-murine chimeric IgG1, kappa) VH: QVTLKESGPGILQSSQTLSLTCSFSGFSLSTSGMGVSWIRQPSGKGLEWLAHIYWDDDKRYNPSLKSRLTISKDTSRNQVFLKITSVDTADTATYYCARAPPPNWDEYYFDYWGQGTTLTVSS VL: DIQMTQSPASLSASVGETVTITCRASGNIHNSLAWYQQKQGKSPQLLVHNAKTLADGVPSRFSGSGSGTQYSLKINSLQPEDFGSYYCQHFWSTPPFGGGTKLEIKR	0.17
F1.280.1 (antibody, human IgG1, kappa, V domains shown, Human-murine chimeric IgG1, kappa) VH: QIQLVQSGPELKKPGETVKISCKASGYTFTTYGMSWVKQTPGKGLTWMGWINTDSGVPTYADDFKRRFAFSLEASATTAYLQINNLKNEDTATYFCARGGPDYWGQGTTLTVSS VL: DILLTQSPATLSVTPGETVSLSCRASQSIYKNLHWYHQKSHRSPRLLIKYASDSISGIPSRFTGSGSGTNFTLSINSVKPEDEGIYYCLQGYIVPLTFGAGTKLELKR	0.24

Now for a further binder.
Request: Give me measured OD450, please, for this binder: F1.245.2 (antibody, human IgG1, kappa, V domains shown, Human-murine chimeric IgG1, kappa) VH: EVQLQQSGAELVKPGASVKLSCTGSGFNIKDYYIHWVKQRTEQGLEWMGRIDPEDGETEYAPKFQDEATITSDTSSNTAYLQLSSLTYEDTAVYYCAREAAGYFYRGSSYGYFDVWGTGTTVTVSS VL: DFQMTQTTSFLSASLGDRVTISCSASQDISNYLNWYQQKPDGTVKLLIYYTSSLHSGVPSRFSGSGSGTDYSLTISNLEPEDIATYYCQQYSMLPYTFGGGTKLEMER
Result: 0.44

These entries and their values trace back to patent US20240084003A1.
